Protocol Summary: Ratio drug uptake in brain to plasma of rat at 1 mg/kg, po
Format: ADME, organism-based
Parameters: dose 1 mg/kg, route oral
Stated Conditions: read-out: BPR
Readout Name: Kp

A = CCS(=O)(=O)c1ccc2oc(Nc3ccc(N4C[C@@H](C)O[C@@H](C)C4)cc3)nc2c1
B = CCS(=O)(=O)c1ccc2oc(Nc3ccc(OC(C)C)cc3)nc2c1
Task item: // which entry has the larger Kp value, A or B ? State the label of the item chosen.
Reply: B

---

Protocol Summary: Total clearance in rat at 0.5 mg/kg, iv and 1 mg/kg, po
Format: ADME, organism-based
Stated Conditions: in vivo
Readout Name: clearance (mL/min/kg)

a = CCS(=O)(=O)c1ccc2oc(Nc3ccc(OC(C)C)cc3)nc2c1
b = CCS(=O)(=O)c1ccc2oc(Nc3ccc(N4C[C@@H](C)O[C@@H](C)C4)cc3)nc2c1
Task item: Among a and b , whose measured clearance is the smaller figure? Please reply using the label of the selected record.
Reply: b
